Origin of values: paper PMC10786891

Target: T1, EsCas13d, nuclease-dead (Eubacterium siraeum, UniProt B0MS50, R295A;H300A;R849A;H854A)
T1 sequence: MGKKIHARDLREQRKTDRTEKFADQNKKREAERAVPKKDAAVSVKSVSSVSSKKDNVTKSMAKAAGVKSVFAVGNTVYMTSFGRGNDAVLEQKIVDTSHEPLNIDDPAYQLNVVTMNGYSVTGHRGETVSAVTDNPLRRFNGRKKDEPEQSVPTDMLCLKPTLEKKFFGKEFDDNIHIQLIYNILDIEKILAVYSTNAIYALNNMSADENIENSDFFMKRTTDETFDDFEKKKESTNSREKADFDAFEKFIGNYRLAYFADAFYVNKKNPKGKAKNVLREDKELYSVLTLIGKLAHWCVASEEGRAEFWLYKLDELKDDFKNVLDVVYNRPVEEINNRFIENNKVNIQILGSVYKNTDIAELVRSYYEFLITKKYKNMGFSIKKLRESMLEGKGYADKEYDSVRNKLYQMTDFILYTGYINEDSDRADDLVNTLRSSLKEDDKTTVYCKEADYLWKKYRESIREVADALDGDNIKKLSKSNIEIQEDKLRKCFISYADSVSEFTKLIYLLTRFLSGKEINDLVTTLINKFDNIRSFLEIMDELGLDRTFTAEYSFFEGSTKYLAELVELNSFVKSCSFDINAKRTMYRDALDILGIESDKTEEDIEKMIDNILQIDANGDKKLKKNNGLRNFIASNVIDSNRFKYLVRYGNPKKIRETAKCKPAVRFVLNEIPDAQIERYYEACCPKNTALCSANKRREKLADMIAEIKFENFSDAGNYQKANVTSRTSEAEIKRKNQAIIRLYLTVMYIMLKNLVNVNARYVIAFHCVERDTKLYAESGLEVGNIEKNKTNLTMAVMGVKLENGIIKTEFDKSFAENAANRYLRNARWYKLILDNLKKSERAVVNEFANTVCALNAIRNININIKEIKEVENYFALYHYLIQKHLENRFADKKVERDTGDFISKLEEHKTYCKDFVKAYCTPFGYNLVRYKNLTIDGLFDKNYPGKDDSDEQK
Test: crRNA (strand 1, pre-loaded); Mg2+; 40 mM Tris-HCl pH 7.5, 150 mM NaCl, 6 mM MgCl2, 1 mM DTT, 0.1% Tween-20, 0.2 mg/ml BSA; 25 C; 10 min per concentration, then washed
Details: tags: His6-TwinStrep-SUMO cleaved; N-terminal SNAP kept (SNAP-Surface 488); label: 3' end held by stalled T7 RNA polymerase
measurement type: pKd
Please treat pKd as minus the base-10 logarithm of the molar concentration.

target 1 insC 3' of 18,insG 3' of 3 (mixed) RNA 1: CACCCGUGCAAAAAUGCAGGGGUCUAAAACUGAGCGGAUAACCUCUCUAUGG RNA 2: GGGAAUGGAUCCACAUCUACGAAUUCGUACCAUACGAGAGGUUAUCCGCUGCACCGAGAUCGGAAGAGCACACGU; 7.57

Documented pKd of target 1 insG 3' of 14,insG 3' of 6 (mixed) RNA 1: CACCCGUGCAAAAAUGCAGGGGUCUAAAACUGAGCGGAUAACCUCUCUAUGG RNA 2: GGGAAUGGAUCCACAUCUACGAAUUCGUACCAUAGAGAGGGUUAUCCGGCUCACCGAGAUCGGAAGAGCACACGU : 7.97

Documented pKd of target 1 C2A,G13U (mixed) RNA 1: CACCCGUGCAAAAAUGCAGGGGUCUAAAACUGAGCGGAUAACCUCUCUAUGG RNA 2: GGGAAUGGAUCCACAUCUACGAAUUCGUACCAUAGAGAUGUUAUCCGCUAACCGAGAUCGGAAGAGCACACGU : 7.31

Documented pKd of target 1 insG 3' of 16,insA 3' of 6 (mixed) RNA 1: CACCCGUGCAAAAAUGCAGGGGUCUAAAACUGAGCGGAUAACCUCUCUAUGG RNA 2: GGGAAUGGAUCCACAUCUACGAAUUCGUACCAUAGAGGAGGUUAUCCAGCUCACCGAGAUCGGAAGAGCACACGU : 7.82
